- target-of-assay: T1, VEGFR-2-Fc (UniProt P35968 20-322)
- T1 construct: domain: first 3 Ig domains; conditioned supernatant of 293T cells; also called VEGFR-2-Fc fusion protein; not shown: Fc fragment of the pIg vector
- T1 sequence (P35968 20-322): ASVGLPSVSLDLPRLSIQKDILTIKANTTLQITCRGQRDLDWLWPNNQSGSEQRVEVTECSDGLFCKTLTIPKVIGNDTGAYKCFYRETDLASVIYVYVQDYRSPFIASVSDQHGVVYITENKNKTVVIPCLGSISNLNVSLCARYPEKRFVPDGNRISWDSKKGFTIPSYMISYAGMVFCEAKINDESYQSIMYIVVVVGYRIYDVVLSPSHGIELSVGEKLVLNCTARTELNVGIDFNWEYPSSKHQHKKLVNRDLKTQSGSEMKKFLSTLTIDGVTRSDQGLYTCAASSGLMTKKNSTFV
- method-description: receptor-Fc IP
reported-metric: binding result

81-9 (ligand) AHYNTEILKFMDVYQRSYCHPIETLVDIFQEYPDEIEYIFKPSCVPLMRCGGCCNDEGLECVPTEESNITMQIMRITVPLSQGPKPVTISFLQHNKCECRPKKD | no binding
81-3 (ligand) AHYNTEILKFMDVYQRSYCHPIETLVDIFQEYPDEIEYIFKPSCVPLMRCGGCCNSEGLQCVPTEESNITMQIMRIKPHQGQHIGEMSFLQHNKCECRPKKD | binds
52-15 (ligand, clone entry) AHYNTEILKSIDNEWRKTQCMPIETLVDIFQEFGVATNTFFKPPCVSVYRCGGCCNSEGLQCVPTEESNITMQIMRITVPLSQGPKPVTISFANHTSCRCMSKLD | no binding
82-5 (ligand) AHYNTEILKFMDVYQRSYCHPIETLVDIFQEFGVATNTFFKPPCVSVYRCGGCCNDEGLECVPTEESNITMQIMRIKPHQGQHIGEMSFANHTSCRCMSKLD | no binding

Where do the numbers come from? From patent US20080058263A1.
